Listed below: MFI values for each entry.
# Subject of test: T1, mouse TMEM106B (mouse, UniProt Q80X71 2-275)
# T1 construct: on transiently transfected HEK293 cells, or natively expressed on mouse Neuro2a cells; also called moTMEM106B; murine TMEM106B
# Assay overview: FACS Neuro2a;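 also: flow cytometry of cells stained with antibody or hybridoma supernatant (purified antibody at 10 µg/ml) for 1 h on ice, propidium iodide–positive dead cells gated out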
Field format: numeric only.

Binder	MFI
anti-TMEM106B antibody TM-1 (antibody, V domains shown) VH: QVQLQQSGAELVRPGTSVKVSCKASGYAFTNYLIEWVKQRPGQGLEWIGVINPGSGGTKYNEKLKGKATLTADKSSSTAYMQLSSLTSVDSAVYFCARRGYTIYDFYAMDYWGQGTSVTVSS VL: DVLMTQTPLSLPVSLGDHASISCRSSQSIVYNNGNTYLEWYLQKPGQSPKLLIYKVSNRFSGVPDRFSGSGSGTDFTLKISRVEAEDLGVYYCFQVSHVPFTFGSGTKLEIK	253
anti-TMEM106B antibody TM-25 (antibody, V domains shown) VH: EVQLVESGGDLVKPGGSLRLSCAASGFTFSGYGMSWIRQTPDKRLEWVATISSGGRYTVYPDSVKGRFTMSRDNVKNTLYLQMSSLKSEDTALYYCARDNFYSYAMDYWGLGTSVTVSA VL: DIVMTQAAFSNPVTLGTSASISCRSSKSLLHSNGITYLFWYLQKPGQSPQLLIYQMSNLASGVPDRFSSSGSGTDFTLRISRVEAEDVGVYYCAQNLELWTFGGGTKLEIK	354

Please look at the following binder next.
Documented MFI of anti-TMEM106B antibody TM-9 (antibody, V domains shown) VH: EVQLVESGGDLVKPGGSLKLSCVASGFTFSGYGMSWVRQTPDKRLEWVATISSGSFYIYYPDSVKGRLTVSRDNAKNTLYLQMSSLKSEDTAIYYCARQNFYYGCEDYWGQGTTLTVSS VL: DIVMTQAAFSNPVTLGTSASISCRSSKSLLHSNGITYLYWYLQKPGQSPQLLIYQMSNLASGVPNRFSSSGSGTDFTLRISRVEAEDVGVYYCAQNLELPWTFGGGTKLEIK : 2710
